Test system: HCC1569
protocol: H1.0 immunofluorescence intensity relative to DMSO (% of DMSO); higher = stronger H1.0 induction, active = 140 or more;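 further: TDF is a line of transformed human dermal fibroblasts of mesenchymal origin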
condition.set: concentration: 10 µM; 24 h
Would you kindly list H1.0 immunofluorescence intensity for each of these compounds?
// print number alone

Ask | Consider the compound CCN(CC)CC#CCOC(=O)C(O)(c1ccccc1)C1CCCCC1.Cl (stereo unspecified) [Oxybutynin Chloride] . State its measured H1.0 immunofluorescence intensity.
Reply | 97.4

Ask | Consider the compound CC1=CC(=O)C(C(C)C)=CC1=O [Thymoquinone] . State its measured H1.0 immunofluorescence intensity.
Reply | 93.3

Ask | Consider the compound N#CC(=Cc1ccc(O)cc1)C(N)=C(C#N)C#N [Tyrphostin AG 112] . State its measured H1.0 immunofluorescence intensity.
Reply | 81

Ask | Consider the compound COc1cc(C=Cc2ccccc2)oc(=O)c1 [5,6-Dehydrokawain] . State its measured H1.0 immunofluorescence intensity.
Reply | 92.6

Ask | Consider the compound CCCCCCCCCCCC=CC(C)(C)C=CCCCC(=O)O [7,7-Dimethyl-(5Z,8Z)-eicosadienoic acid] . State its measured H1.0 immunofluorescence intensity.
Reply | 92.2

Ask | Consider the compound CC(C)[N+](C)(CCOC(=O)C1c2ccccc2Oc2ccccc21)C(C)C.[Br-] [Propantheline bromide] . State its measured H1.0 immunofluorescence intensity.
Reply | 96.9

Ask | Consider the compound CC(C)(C)c1nc2c3cc[nH]c(=O)c3c3cc(F)ccc3c2[nH]1 [JAK Inhibitor I] . State its measured H1.0 immunofluorescence intensity.
Reply | 126

Ask | Consider the compound C=C(CC)C(=O)c1ccc(OCC(=O)O)c(Cl)c1Cl [Ethacrynic Acid] . State its measured H1.0 immunofluorescence intensity.
Reply | 100

Ask | Consider the compound Br.CN1CCc2cc(O)c(O)cc2C1Cc1ccc(O)c(O)c1.O.O.O (stereo unspecified) . State its measured H1.0 immunofluorescence intensity.
Reply | 89.2

Ask | Consider the compound COC1=CC(C)C2CC3OC(=O)CC4C(C)=C(OC)C(=O)C(C2(C)C1=O)C34C (stereo unspecified) [Quassin] . State its measured H1.0 immunofluorescence intensity.
Reply | 94.8

Ask | Consider the compound CCCC(CCC)C(=O)[O-].[Na+] [Valproic acid sodium] . State its measured H1.0 immunofluorescence intensity.
Reply | 99.9

Ask | Consider the compound CCC(C(=O)C(C)C(O)C(C)CCc1ccc(C)c(O)c1C(=O)[O-])C1OC(CC)(C2CCC(O)(CC)C(C)O2)CC1C.[Na+] (stereo unspecified) [Lasalocid A] . State its measured H1.0 immunofluorescence intensity.
Reply | 94.6

Ask | Consider the compound COc1ccc(-n2[nH]c3c(cnc4ccccc43)c2=O)cc1 [2-(4-methoxyphenyl)-1H-pyrazolo[4,3-c]quinolin-3(2H)-one] . State its measured H1.0 immunofluorescence intensity.
Reply | 93.6

Ask | Consider the compound O=C1CCCC(=O)C1C(=O)c1ccc(C(F)(F)F)cc1[N+](=O)[O-] [2-[2-nitro-4-(trifluoromethyl)benzoyl]-1,3-cyclohexanedione] . State its measured H1.0 immunofluorescence intensity.
Reply | 101

Ask | Consider the compound "CC(=O)O.O=C(O)c1ccc2c3c1cccc3c(=O)n1c3ccccc3nc21" . State its measured H1.0 immunofluorescence intensity.
Reply | 105

Ask | Consider the compound COc1cc2c(cc1O)CCC1C2CCC2(C)C(O)CCC12 (stereo unspecified) [2-methoxyestradiol] . State its measured H1.0 immunofluorescence intensity.
Reply | 156

Ask | Consider the compound Br.CN(C)CCCC1(c2ccc(F)cc2)OCc2cc(C#N)ccc21 (stereo unspecified) [Citalopram hydrobromide] . State its measured H1.0 immunofluorescence intensity.
Reply | 92.5

Ask | Consider the compound CCCCC(C)(O)CC=CC1C(O)CC(=O)C1CCCCCCC(=O)O (stereo unspecified) [Misoprostol, free acid] . State its measured H1.0 immunofluorescence intensity.
Reply | 98.8

Ask | Consider the compound COc1ccc(CN(CCN(C)C)c2ccccn2)cc1.O=C(O)C=CC(=O)O [Pyrilamine maleate] . State its measured H1.0 immunofluorescence intensity.
Reply | 100

Ask | Consider the compound NC(N)=NCc1cccc(I)c1 [N-(3-iodobenzyl)guanidine] . State its measured H1.0 immunofluorescence intensity.
Reply | 105

Ask | Consider the compound N#CCCc1ccc2c(c1)-c1[nH]c3ccc([N+](=O)[O-])cc3c1CC(=O)N2 [Alsterpaullone, 2-Cyanoethyl] . State its measured H1.0 immunofluorescence intensity.
Reply | 113

====

Tested on: HCC1569
protocol: H1.0 immunofluorescence intensity relative to DMSO (% of DMSO); higher = stronger H1.0 induction, active = 140 or more
condition.set: concentration: 10 µM; 24 h
Decision: H1.0 immunofluorescence intensity >= 100 yields 1.0, all other cases yield 0.0.

Ask | Textbook exercise: given the entry CC=C1C2C=C(C)CC1(N)c1ccc(=O)[nH]c1C2 (single isomer, unassigned; (-)) [(-)-Huperazine] , state whether its H1.0 immunofluorescence intensity is greater than or equal to 100.
Reply | 0.0

Ask | Textbook exercise: given the entry "c1ccc(-c2cnc(Nc3ccc(OCCN4CCCC4)cc3)s2)cc1" , state whether its H1.0 immunofluorescence intensity is greater than or equal to 100.
Reply | 1.0

Ask | Textbook exercise: given the entry "Cc1cc(I)ccc1Nc1c(C(=O)NOCC2CC2)cc(F)c(F)c1F" , state whether its H1.0 immunofluorescence intensity is greater than or equal to 100.
Reply | 1.0

Ask | Textbook exercise: given the entry N#Cc1ccc2c(c1)CCN(CCC1CCC(NC(=O)c3ccnc4ccccc34)CC1)C2 (configuration not stated) , state whether its H1.0 immunofluorescence intensity is greater than or equal to 100.
Reply | 1.0

Ask | Textbook exercise: given the entry OC1C(O)C(O)C(O)C(O)C1O (configuration not stated) [1,2,3,4,5,6-cyclohexanehexol] , state whether its H1.0 immunofluorescence intensity is greater than or equal to 100.
Reply | 0.0

Ask | Textbook exercise: given the entry "Clc1ccccc1C(c1ccccc1)(c1ccccc1)n1ccnc1" , state whether its H1.0 immunofluorescence intensity is greater than or equal to 100.
Reply | 1.0

Ask | Textbook exercise: given the entry "O[C@@H]1[C@@H](O)[C@H](OC/C=C/c2ccccc2)O[C@H](CO[C@@H]2OC[C@H](O)[C@H](O)[C@H]2O)[C@H]1O" , state whether its H1.0 immunofluorescence intensity is greater than or equal to 100.
Reply | 0.0

Ask | Textbook exercise: given the entry Cc1ccccc1CNc1ncnc2c1ncn2C1OC(CO)C(O)C1O (configuration not stated) , state whether its H1.0 immunofluorescence intensity is greater than or equal to 100.
Reply | 0.0

Ask | Textbook exercise: given the entry Nc1ccc(CCNc2ncnc3c2ncn3C2OC(CO)C(O)C2O)cc1 (configuration not stated) , state whether its H1.0 immunofluorescence intensity is greater than or equal to 100.
Reply | 0.0

Ask | Textbook exercise: given the entry "COc1ccc2c(c1)c(CC(=O)O)c(C)n2Cc1ccc(F)cc1" , state whether its H1.0 immunofluorescence intensity is greater than or equal to 100.
Reply | 0.0

====

System: TDF
protocol: H1.0 immunofluorescence intensity relative to DMSO (% of DMSO); higher = stronger H1.0 induction, active = 120 or more
condition.set: concentration: 10 µM; 24 h
Would you kindly list H1.0 immunofluorescence intensity for each of these compounds?
// print number alone

Ask | Fill in: H1.0 immunofluorescence intensity on TDF, entry OCC1OC(n2cnc3c(NC4CCCC4)ncnc32)C(O)C1O (centres undefined) [N6-Cyclopentyladenosine]
Reply | 93.5

Ask | Fill in: H1.0 immunofluorescence intensity on TDF, entry CC(N)C1CCC(C(=O)Nc2ccncc2)CC1.Cl.Cl.O (centres undefined)
Reply | 97.1

Ask | Fill in: H1.0 immunofluorescence intensity on TDF, entry CCc1nn(CCCN2CCN(c3cccc(Cl)c3)CC2)c(=O)n1CCOc1ccccc1 [Nefazodone]
Reply | 95.5

Ask | Fill in: H1.0 immunofluorescence intensity on TDF, entry CCn1nc(C(=O)O)c(=O)c2cc3c(cc21)OCO3 [Cinoxacin]
Reply | 95.7

Ask | Fill in: H1.0 immunofluorescence intensity on TDF, entry CC(C)[N+]1(C)C2CCC1CC(OC(=O)C(CO)c1ccccc1)C2.[Br-] (centres undefined) [Ipratropium.Br]
Reply | 91.5

Ask | Fill in: H1.0 immunofluorescence intensity on TDF, entry "Cc1cccc(-c2nn(C(=S)Nc3ccccc3)cc2-c2ccnc3ccccc23)n1"
Reply | 82.2

Ask | Fill in: H1.0 immunofluorescence intensity on TDF, entry Nc1nnc(-c2cccc(Cl)c2Cl)c(N)n1 [Lamotrigine]
Reply | 87.7

Ask | Fill in: H1.0 immunofluorescence intensity on TDF, entry CC(C)NCC(O)COc1cccc2ccccc12 (stereo not drawn) [Propranolol S(-)]
Reply | 102

Ask | Fill in: H1.0 immunofluorescence intensity on TDF, entry O=C(O)c1cccnc1Nc1cccc(C(F)(F)F)c1 [Niflumic acid]
Reply | 97.7
